Answer each item with its documented binding signal.
Target: T1, TGFβ2 (transforming growth factor beta 2) (Homo sapiens, UniProt P61812 SEQ:1-112)
T1 sequence: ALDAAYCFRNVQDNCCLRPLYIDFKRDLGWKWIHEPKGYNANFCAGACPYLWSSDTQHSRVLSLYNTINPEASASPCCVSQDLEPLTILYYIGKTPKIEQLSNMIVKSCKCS
Assay: filter
Details: chain copies: 2 (inferred, homodimer)

                                     binder   recordedmeasurement
0  GGAGGUUAUUACAGAGUCUGUAUAGCUACUCC (ssRNA, 2'-F C and U) [21a-21(ML-116)]  1000 x Kd of NX22284
1  GGAGGUUAUUACAGAGUCUGUAUAGCUGUACUCC (ssRNA, 2'-F C and U) [21a-21(ML-95)]     1 x Kd of NX22284

I'm hoping you can list binding signal for every binder here, please.
1. GGUUAUUACAGAGUCUGUAUAGCUGUACUCC (ssRNA, 2'-F C and U; 3'-3' dT cap) [NX22303]
2. GGAGAUAUUACAGAGUCUGUAUAGCUGUACUCC (ssRNA, 2'-F C and U) [21a-21(ML-134)]
3. GGGGUUAUUACAGAGUCUGUAUAGCUGUACCC (ssRNA, 2'-F C and U) [21a-21(ML-130)]
4. GGAGGUUAUUACAGAGUCUGUAUAGCUGUACUCCCCA (ssRNA, 2'-F C and U) [NX22285]

1: > 100 x Kd of NX22284; 2: 10 x Kd of NX22284; 3: 2 x Kd of NX22284; 4: 2 x Kd of NX22284
